Data origin, for the record: the Immune Epitope Database (IEDB)

Target: HLA-A*02:01
Assay: IEDB peptide-MHC binding, purified MHC/competitive/radioactivity; bounds were set here for any values at or beyond the usual limits of such assays
Conditions: source organism: SARS-CoV1
IC50 less than 40 nM is yes (1); IC50 greater than or equal to 40 nM is no (0).

# Ordered Residues, Label
rows = [
    ("MLSVVGFLV", "yes (1)"),
    ("FTLLFQLCT", "no (0)"),
    ("LVIGVAFLAV", "no (0)"),
    ("FLAFLLFLVL", "yes (1)"),
    ("FICNLLLLFV", "yes (1)"),
    ("FLLFLVLIML", "no (0)"),
    ("FLCLFLLPSL", "yes (1)"),
    ("ALSGVFCGV", "yes (1)"),
    ("FLWLLWPVTL", "yes (1)"),
    ("LLVAAGMEA", "no (0)"),
    ("YIFFASFYYI", "yes (1)"),
    ("IIFWFSLEI", "yes (1)"),
    ("LMLKATLLCV", "yes (1)"),
    ("LMSFTILCL", "yes (1)"),
    ("VMYASALVLL", "yes (1)"),
    ("ALLFLMSFT", "no (0)"),
    ("NVLAWLYAA", "yes (1)"),
    ("LLSAGIFGA", "yes (1)"),
    ("ALLFLMSFTI", "yes (1)"),
    ("AIILASFSA", "no (0)"),
    ("NLAPHLLLIV", "no (0)"),
    ("AIMTRCLAV", "yes (1)"),
    ("MLFTKFFYL", "yes (1)"),
    ("FLYIIKLVFL", "yes (1)"),
    ("QLMCQPILLL", "yes (1)"),
    ("FMRFFTLGSI", "no (0)"),
    ("ILASFSAST", "yes (1)"),
    ("YASALVLLI", "yes (1)"),
    ("IVDTVSALV", "no (0)"),
    ("SLCSCICTV", "yes (1)"),
    ("LLLEWLAEVV", "yes (1)"),
    ("FLAFVVFLLV", "no (0)"),
    ("ITMTTVYHI", "yes (1)"),
    ("LIVAALVFL", "yes (1)"),
    ("GTSAAAYFV", "no (0)"),
    ("FLAFVVFLL", "yes (1)"),
    ("ALVSGTATA", "no (0)"),
    ("VMFNGVTFST", "yes (1)"),
    ("MQVFFGYFA", "yes (1)"),
    ("FLVLIMLII", "no (0)"),
    ("MLLTFLTSLL", "yes (1)"),
    ("HLDGEVLSL", "no (0)"),
    ("SQMETDFLEL", "no (0)"),
    ("NMLRIMASL", "no (0)"),
    ("KLMGHFSWWT", "yes (1)"),
    ("FVDGVPFVV", "yes (1)"),
    ("KLWAQCVQL", "yes (1)"),
    ("SLVKPTVYV", "no (0)"),
    ("LLDDFVEII", "no (0)"),
    ("YALCTLLHL", "yes (1)"),
    ("MLLTFLTSL", "yes (1)"),
    ("LIANIFTPLV", "yes (1)"),
    ("YVVVHGYFT", "no (0)"),
    ("YLSSVLLAL", "yes (1)"),
    ("LLLEWLAEV", "yes (1)"),
    ("VIADYNYKL", "yes (1)"),
    ("ILFLTLIVFT", "yes (1)"),
    ("LLLSICLGSL", "no (0)"),
    ("FLFLAWIML", "yes (1)"),
    ("GALDVSASV", "yes (1)"),
    ("WLLWPVTLA", "yes (1)"),
    ("AQMGTLLIA", "yes (1)"),
    ("LLFLVLIMLI", "no (0)"),
    ("WLMWFIISIV", "yes (1)"),
    ("AIYVFCISL", "no (0)"),
    ("IAMWLLLLSI", "no (0)"),
    ("LLALQQLEV", "yes (1)"),
    ("IMQVFFGYFA", "no (0)"),
    ("YLMCLSPLM", "yes (1)"),
    ("TLLLWISVKV", "no (0)"),
    ("TLLCVLAALV", "yes (1)"),
    ("IAACAMLLV", "no (0)"),
    ("YIWKSYVHI", "yes (1)"),
    ("LLVTLAILTA", "yes (1)"),
    ("ALLADKFPV", "yes (1)"),
    ("AIAACAMLLV", "yes (1)"),
    ("FLMSFTILCL", "yes (1)"),
    ("KLIEYSDFA", "yes (1)"),
    ("YMLFTKFFYL", "yes (1)"),
    ("VLTHGLASV", "yes (1)"),
    ("LMGHFSWWTA", "yes (1)"),
    ("GLMWLSYFV", "yes (1)"),
    ("FLAHLQWFA", "yes (1)"),
    ("FLTNKLLLFA", "yes (1)"),
    ("LLFLVLIML", "no (0)"),
    ("LVIGFLFLA", "yes (1)"),
    ("ALYKGFQFI", "yes (1)"),
    ("FVDEFYAYL", "yes (1)"),
]
